- EXPERIMENT_DESCRIPTION: Metabolic stability test in liver S9
- Assay type: in vitro ADME
- CONDITION_SET: pH 7.4; unchanged form after 60 minutes at 37°C, human liver S9 2 mg protein/mL, LC/MS; read-out: Remaining rate in human liver S9 (%/60min)
- Procedure: Human liver S9 (final concentration: 2 mg protein/mL), was suspended in 100 mM potassium phosphate buffer (pH 7.4, containing β-nicotinamide adenine dinucleotide phosphate: 1.3 mM, D-glucose-6- phosphate: 3.3 mM, magnesium chloride: 3.3 mM, glucose-6-phosphate dehydrogenase:0.4 U/mL). […] The solutions were centrifuged, and the concentration of the sample (unchanged form) in the supernatant was determined by high performance liquid chromatography/mass spectrometry (LC/MS). […]
# note: exactly 2% is not below, so it is Not met; use Met for remaining at 1 h strictly under it

| COMPOUND | ASSIGNED_LABEL |
| --- | --- |
| COC(=O)c1ccc(OC(=O)CCCc2ccc(NC(=O)c3ccccc3-c3ccc(C(F)(F)F)cc3)c(C(=O)N(C)C)c2)cc1Cl | Met |

Next item in the queue.
Take the compound COC(=O)c1ccc(OC(=O)CCCc2ccc(NC(=O)c3ccccc3-c3ccc(C(F)(F)F)cc3)c(C(=O)N(C)C)c2)c(F)c1 and say whether its remaining at 1 h is less than 2%. Met
